# EXPERIMENTAL TARGET: human recombinant Dipeptidyl peptidase IV enzyme (Homo sapiens, UniProt P27487)
# Sequence (P27487 whole entry): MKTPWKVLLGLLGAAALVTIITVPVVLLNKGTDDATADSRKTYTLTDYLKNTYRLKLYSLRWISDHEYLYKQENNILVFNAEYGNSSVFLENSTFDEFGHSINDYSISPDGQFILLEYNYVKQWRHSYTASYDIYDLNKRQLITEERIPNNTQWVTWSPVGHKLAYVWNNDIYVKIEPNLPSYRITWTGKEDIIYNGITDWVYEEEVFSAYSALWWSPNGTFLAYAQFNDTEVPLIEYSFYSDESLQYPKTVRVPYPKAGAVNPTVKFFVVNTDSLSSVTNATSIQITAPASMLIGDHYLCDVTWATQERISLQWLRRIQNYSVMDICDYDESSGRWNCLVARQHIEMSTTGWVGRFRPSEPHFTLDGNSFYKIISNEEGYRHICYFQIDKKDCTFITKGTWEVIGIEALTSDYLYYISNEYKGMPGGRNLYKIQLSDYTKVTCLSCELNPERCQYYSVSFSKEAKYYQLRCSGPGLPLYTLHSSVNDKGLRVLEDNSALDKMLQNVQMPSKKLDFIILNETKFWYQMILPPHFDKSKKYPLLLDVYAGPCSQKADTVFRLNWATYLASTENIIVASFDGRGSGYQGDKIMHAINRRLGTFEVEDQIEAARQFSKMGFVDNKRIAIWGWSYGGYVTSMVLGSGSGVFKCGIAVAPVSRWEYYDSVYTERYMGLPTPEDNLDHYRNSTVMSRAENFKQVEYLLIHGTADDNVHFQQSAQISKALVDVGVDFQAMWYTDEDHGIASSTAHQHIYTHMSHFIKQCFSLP
# ASSAY COMMENT: In-vitro DPP-IV assay (cleavage of Gly-Pro-AMC)
# TEST CONTEXT: n = 3, substrate Gly-Pro-AMC, 30° C., 30 minutes, read-out: DPP-IV inhibition IC50
# Description: Protocol for In-Vitro DPP-IV Assay DPPIV activity was determined by the cleavage rate of 7-amino-4-methyl coumarin (AMC) from synthetic substrate Glycyl-Prolyl-AMC. […] Fluorescence was measured using Fluorostar at excitation filter of 380 nm and emission filter of 460 nm). […] Test compounds dissolved in DMSO at 5–6 concentrations were tested in duplicate along with the solvent control and blank samples. […] IC50 values were calculated from 3 experiments using the prism software.
Structures can show the parent of a compound that is named as a salt.
Documented pIC50 across a set of molecules
Note on pIC50: it is the negative log10 of concentration, concentration in mol/L.

Example entries and their recorded answers appear below.
> print(dat)
                                   molecule                       experimental.target  recorded.measurement
1  N#C[C@@H]1CCCN1C(=O)CN[C@@H]1CC[C@H](CS(=O)(=O)c2ccccc2)C1  human recombinant Dipeptidyl peptidase IV enzyme (Homo sapiens, UniProt P27487)                  7.04
2  N#C[C@@H]1CCCN1C(=O)CNC1CCC(CNc2cc(F)c(F)cc2F)C1 (mixture of isomers)  human recombinant Dipeptidyl peptidase IV enzyme (Homo sapiens, UniProt P27487)                  7.76

Let us examine a further case.
Report pIC50 for N#Cc1ccc(OC[C@H]2CC[C@@H](NCC(=O)N3CCC[C@H]3C#N)C2)cc1 [Example-48, hydrochloride] tested on human recombinant Dipeptidyl peptidase IV enzyme (Homo sapiens, UniProt P27487).
7.87
